Where these numbers come from: patent US20160159814A1

biological target: human type 1 glycine transporter (GlyT1) (Homo sapiens); construct: T98G cells (glioma cells) expressing human type 1 glycine transporter (GlyT1) were used; endogenous in cells; host or cells: T98G cells (human glioma cells); experiment: Glycine uptake inhibition experiment ([3H] glycine uptake in T98G cells expressing GlyT1); type: cell-based; settings: glycine uptake inhibition
valueType: IC50 (nM)

Worked cases, IC50 given:
compound	IC50 / nM
O=C1N(Cc2cncc(-n3nccn3)c2)c2cccc(C(O)C(F)F)c2C1(F)F (single isomer, unassigned) [Compound 148]	39
C[C@H](O)c1cccc2c1C(F)(F)C(=O)N2Cc1nc2ccccc2n(C)c1=O [Compound 101]	41
C[C@H](O)c1cccc2c1C(F)(F)C(=O)N2Cc1cc2ccccc2c(=O)n1C [Compound 100]	29
O=C1N(Cc2cc(Cl)ccn2)c2cccc([C@@H](O)C(F)(F)F)c2C1(F)F [Compound 145]	43
C[C@H](O)c1cccc2c1C(F)(F)C(=O)N2Cc1ccccn1 [Compound 60]	230
C[C@H](O)c1cccc2c1C(F)(F)C(=O)N2Cc1cccc(C(F)(F)F)n1 [Compound 67]	17
CC(c1cccc(Cl)n1)N1C(=O)C(F)(F)c2c([C@H](C)O)cccc21 (single isomer, unassigned) [Compound 53]	140
Cn1c(CN2C(=O)C(F)(F)c3c([C@@H](O)C(F)(F)F)cccc32)nc2ccccc21 [Compound 137]	150
CC(O)c1cccc2c1C(F)(F)C(=O)N2Cc1ccnc(F)c1 (stereo not shown) [Compound 29]	77
C[C@H](O)c1cccc2c1C(F)(F)C(=O)N2Cc1nc2cc(F)ccc2o1 [Compound 92]	69

[A] C[C@H](O)c1cccc2c1C(F)(F)C(=O)N2Cc1cnc2ccccc2c1 [Compound 74]
[B] C[C@H](O)c1cccc2c1C(F)(F)C(=O)N2Cc1ccc2ncccc2n1 [Compound 78]
[C] O=C1N(Cc2cncc(Cl)c2)c2ccc(F)c(C(O)C(F)F)c2C1(F)F (single isomer, unassigned) [Compound 136]
[D] C[C@H](O)c1cccc2c1C(F)(F)C(=O)N2Cc1ccccc1 [Compound 54]
[E] C[C@H](O)c1cccc2c1C(F)(F)C(=O)N2Cc1cc(C(F)F)ccn1 [Compound 122]
### Prompt Thanks in advance: please rank these 5 entries by IC50, highest to lowest. # list labels per requested ordering
### Response C, B, E, A, D

* * *

molecular target: human type 1 glycine transporter (GlyT1) (Homo sapiens, UniProt P48067); construct: T98G cells (glioma cells) expressing human type 1 glycine transporter (GlyT1) were used; endogenous in cells; host or cells: T98G cells (human glioma cells); assay: Glycine uptake inhibition experiment ([3H] glycine uptake in T98G cells expressing GlyT1); type: cell-based
Sequence (P48067 whole entry): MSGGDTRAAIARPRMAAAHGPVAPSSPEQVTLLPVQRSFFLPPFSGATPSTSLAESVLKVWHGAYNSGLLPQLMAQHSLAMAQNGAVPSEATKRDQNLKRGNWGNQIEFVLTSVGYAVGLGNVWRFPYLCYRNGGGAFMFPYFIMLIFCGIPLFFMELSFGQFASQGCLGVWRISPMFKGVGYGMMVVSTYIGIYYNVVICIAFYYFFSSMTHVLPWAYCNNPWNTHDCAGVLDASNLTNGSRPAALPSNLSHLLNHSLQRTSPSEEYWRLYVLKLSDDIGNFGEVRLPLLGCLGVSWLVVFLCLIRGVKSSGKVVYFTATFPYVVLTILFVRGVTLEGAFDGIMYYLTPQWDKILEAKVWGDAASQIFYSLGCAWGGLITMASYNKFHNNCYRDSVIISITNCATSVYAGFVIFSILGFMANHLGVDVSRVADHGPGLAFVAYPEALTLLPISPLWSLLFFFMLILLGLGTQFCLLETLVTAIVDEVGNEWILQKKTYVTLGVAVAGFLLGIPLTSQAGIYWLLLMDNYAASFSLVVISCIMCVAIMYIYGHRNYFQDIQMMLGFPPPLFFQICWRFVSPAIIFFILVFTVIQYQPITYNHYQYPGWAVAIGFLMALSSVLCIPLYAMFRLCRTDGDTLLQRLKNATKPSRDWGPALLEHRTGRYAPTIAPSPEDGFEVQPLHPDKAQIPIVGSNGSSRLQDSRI
pIC50: −log10 of the molar value.
valueType: pIC50

[I] C[C@H](O)c1cccc2c1C(F)(F)C(=O)N2Cc1ncc(Cl)cc1Cl
[II] C[C@H](O)c1cccc2c1C(F)(F)C(=O)N2Cc1ccc(C(F)(F)F)c(Cl)n1
[III] C[C@H](O)c1cccc2c1C(F)(F)C(=O)N2Cc1ccnc(C#N)c1F
[IV] N#Cc1cc(CN2C(=O)C(F)(F)c3c(C(O)C(F)F)cccc32)c(Cl)cn1 (single isomer, unassigned)
[V] CC(O)c1c(F)ccc2c1C(F)(F)C(=O)N2Cc1ccnc(C#N)c1 (single isomer, unassigned) [Compound 184]
### Prompt Rank items: key pIC50, increasing. # list labels per requested ordering
### Response IV, V, I, III, II

[I] COc1cccc(CN2C(=O)C(F)(F)c3c(C(O)C(F)F)cccc32)n1 (single isomer, unassigned)
[II] C[C@H](O)c1cccc2c1C(F)(F)C(=O)N2Cc1ncc(Cl)cc1C#N
[III] C[C@H](O)c1cccc2c1C(F)(F)C(=O)N2Cc1ncc(C(F)(F)F)cc1Cl
[IV] COc1ccncc1CN1C(=O)C(F)(F)c2c([C@H](C)O)cccc21
[V] O=C1N(Cc2ccnc(C3CC3)c2)c2cccc(C(O)C(F)F)c2C1(F)F (single isomer, unassigned)
### Prompt Thanks in advance: please rank these 5 entries by pIC50, highest to lowest. # list labels per requested ordering
### Response I, III, V, II, IV

[I] Cn1c(CN2C(=O)C(F)(F)c3c(C(O)C(F)F)cccc32)nc2ccccc21 (single isomer, unassigned)
[II] COc1cc(CN2C(=O)C(F)(F)c3c([C@@H](O)C(F)(F)F)cccc32)ccn1
[III] COc1cc(CN2C(=O)C(F)(F)c3c(C(O)C(F)F)cccc32)ccn1 (single isomer, unassigned)
[IV] C[C@H](O)c1cccc2c1C(F)(F)C(=O)N2Cc1ccncc1F
### Prompt Ascending by pIC50, please. # list labels per requested ordering
### Response IV, I, III, II
(IV: 6.39, I: 6.96, III: 7.32, II: 7.59)

[1] COc1ccc(CN2C(=O)C(F)(F)c3c([C@H](C)O)cccc32)nc1C#N
[2] COc1cc(CN2C(=O)C(F)(F)c3c([C@H](C)O)cccc32)cnc1F
[3] O=C1N(Cc2ccc(Cl)nc2)c2cccc(C(O)C(F)F)c2C1(F)F (single isomer, unassigned)
[4] C[C@H](O)c1cccc2c1C(F)(F)C(=O)N2Cc1cc(Cl)c(F)cn1
### Prompt Thanks in advance: please rank these 4 entries by pIC50, highest to lowest. # list labels per requested ordering
### Response 4, 2, 1, 3

* * *

target: human type 1 glycine transporter (GlyT1) (Homo sapiens, UniProt P48067); construct: T98G cells (glioma cells) expressing human type 1 glycine transporter (GlyT1) were used; endogenous in cells; host or cells: T98G cells (human glioma cells); assay: Glycine uptake inhibition experiment ([3H] glycine uptake in T98G cells expressing GlyT1); format: cell-based
pIC50: −log10 of the molar value.
valueType: pIC50

Worked cases, pIC50 given:
molecule	pIC50
C[C@H](O)c1cccc2c1C(F)(F)C(=O)N2Cc1cnc(Cl)nc1 [Compound 214]	6.85
C[C@H](O)c1cccc2c1C(F)(F)C(=O)N2Cc1ccc(C#N)nc1 [Compound 201]	6.08

[P] CC(O)c1c(F)ccc2c1C(F)(F)C(=O)N2Cc1cncc(Cl)c1 (single isomer, unassigned) [Compound 181]
[Q] COc1cc(CN2C(=O)C(F)(F)c3c(C(O)C(F)F)cccc32)cnc1F (single isomer, unassigned) [Compound 273]
### Prompt Which one would you say has the larger pIC50 value: P , or Q ? Write the label of whichever entry you select.
### Response Q

* * *

molecular target: human type 1 glycine transporter (GlyT1) (Homo sapiens, UniProt P48067); construct: T98G cells (glioma cells) expressing human type 1 glycine transporter (GlyT1) were used; endogenous in cells; host or cells: T98G cells (human glioma cells); test: Glycine uptake inhibition experiment ([3H] glycine uptake in T98G cells expressing GlyT1); assay type: cell-based; settings: glycine uptake inhibition
valueType: IC50 (nM)

Worked cases, IC50 given:
compound	valueType	readoutUnits	readoutNumber
C[C@H](O)c1cccc2c1C(F)(F)C(=O)N2Cc1ccc(Cl)nc1	IC50	nM	91
N#Cc1cc(CN2C(=O)C(F)(F)c3c(C(O)C(F)F)cccc32)ccn1 (single isomer, unassigned) [Compound 110]	IC50	nM	2100
C[C@H](O)c1c(Cl)ccc2c1C(F)(F)C(=O)N2Cc1ccnc(C#N)c1	IC50	nM	150

[P] C[C@H](O)c1cccc2c1C(F)(F)C(=O)N2Cc1ccncc1
[Q] C[C@H](O)c1cccc2c1C(F)(F)C(=O)N2Cc1ccc2ncoc2c1
[R] C[C@H](O)c1cccc2c1C(F)(F)C(=O)N2Cc1cncc(-n2ccnn2)c1
### Prompt Thanks in advance: please rank these 3 entries by IC50, highest to lowest. # list labels per requested ordering
### Response R, P, Q

[a] O=C1N(Cc2cncc(Cl)c2)c2cccc(C(O)C(F)(F)F)c2C1(F)F (single isomer, unassigned) [Compound 23]
[b] O=C1N(Cc2ccccc2)c2cccc(C(O)C(F)F)c2C1(F)F (single isomer, unassigned)
[c] O=C1N(Cc2ccnc(-n3nccn3)c2)c2cccc(C(O)C(F)F)c2C1(F)F (single isomer, unassigned)
### Prompt Ascending by IC50, please. # list labels per requested ordering
### Response b, a, c

* * *

molecular target: human type 1 glycine transporter (GlyT1) (Homo sapiens, UniProt P48067); construct: T98G cells (glioma cells) expressing human type 1 glycine transporter (GlyT1) were used; endogenous in cells; host or cells: T98G cells (human glioma cells); assay: Glycine uptake inhibition experiment ([3H] glycine uptake in T98G cells expressing GlyT1); assay type: cell-based
valueType: IC50 (nM)

[a] O=C1N(Cc2ccc(C(F)(F)F)nc2)c2cccc(C(O)C(F)F)c2C1(F)F (single isomer, unassigned) [Compound 161]
[b] CC(O)c1c(F)ccc2c1C(F)(F)C(=O)N2Cc1ccnc(C#N)c1 (single isomer, unassigned) [Compound 182]
[c] C[C@H](O)c1cccc2c1C(F)(F)C(=O)N2Cc1ccnc(C2CC2)c1 [Compound 175]
### Prompt // TODO: order the 3 compounds above by IC50, descending # list labels per requested ordering
### Response b, a, c
